assay: qHTS profiling for inhibitors of Plasmodium falciparum proliferation (AID 504749); note: potency is the fitted concentration of half-maximal effect; nearly all actives have a fitted effect of over 60% in size; conditions: P. falciparum in erythrocytes, SYBR Green DNA, 72 h; parasite line A
Records with an inconclusive call do not appear. The source made the active and inactive calls. Calls come from the whole dose curve; as a rule, active = well fitted inhibition curve with a large enough effect; inconclusive = small, poorly fitted or top-dose-only effect; inactive = flat fitted curve, though single readings scatter.
Parameter Potency: see the listing below.

{"columns": ["molecule", "Potency"],
 "data": [
  ["CO[C@H]1C[C@@H]2CC[C@@H](C)[C@@](O)(O2)C(=O)C(=O)N2CCCC[C@H]2C(=O)O[C@H]([C@H](C)C[C@@H]2CC[C@@H](OCCO)[C@H](OC)C2)CC(=O)[C@H](C)/C=C(\\C)[C@@H](O)[C@@H](OC)C(=O)[C@H](C)C[C@H](C)/C=C/C=C/C=C/1C", "2.24 µM (active)"],
  ["CCCCCCOc1ccc(C(=N)N(CCCC)CCCC)c2ccccc12", "7.08 µM (active)"],
  ["COc1cc(-c2ccc(-[n+]3nc(-c4ccccc4)nn3-c3ccc([N+](=O)[O-])cc3)c(OC)c2)ccc1-[n+]1nc(-c2ccccc2)nn1-c1ccc([N+](=O)[O-])cc1", "10 µM (active)"],
  ["O=C(Nc1ccc(Br)cc1)c1cc(Br)c(Br)s1", "10 µM (active)"],
  ["C[C@@H]1CCC2[C@@H](C)[C@@H](O)O[C@@H]3O[C@@]4(C)CC[C@@H]1[C@@]23OO4 (some centres undefined)", "0.0014 µM (active)"],
  ["CCCC(=O)O[C@]1(C(=O)CCl)[C@H](C)C[C@@H]2[C@H]3CCC4=CC(=O)C=C[C@]4(C)[C@@]3(F)C(=O)C[C@@]21C", "1.41 µM (active)"],
  ["CCNC(=O)[C@@H]1CCCN1C(=O)[C@H](CCCN=C(N)N)NC(=O)[C@H](CC(C)C)NC(=O)[C@@H](Cc1c[nH]c2ccccc12)NC(=O)[C@H](Cc1ccc(O)cc1)NC(=O)[C@H](CO)NC(=O)[C@H](Cc1c[nH]c2ccccc12)NC(=O)[C@H](Cc1cnc[nH]1)NC(=O)[C@@H]1CCC(=O)N1", "4.47 µM (active)"],
  ["CCOC(=O)C1=CC2(CC)CCCN3CCc4c(n1c1ccccc41)C32 (centres undefined)", "11.2 µM (active)"],
  ["O=C1C(=O)c2ncccc2-c2cccnc21", "0.891 µM (active)"],
  ["CCOC(=O)C1=C(C)NC(C)=C(C(=O)OCC)C1c1ccccc1C=CC(=O)OC(C)(C)C", "11.2 µM (active)"],
  ["CO[C@H](C(=O)[C@@H](O)[C@@H](C)O)C1Cc2cc3cc(O[C@H]4C[C@@H](O[C@H]5C[C@@H](O)[C@H](O)[C@@H](C)O5)[C@@H](O)[C@@H](C)O4)c(C)c(O)c3c(O)c2C(=O)[C@H]1O[C@H]1C[C@@H](O[C@H]2C[C@@H](O[C@H]3C[C@](C)(O)[C@H](O)[C@@H](C)O3)[C@H](O)[C@@H](C)O2)[C@H](O)[C@@H](C)O1 (some centres undefined)", "0.112 µM (active)"],
  ["CCCCCCCCCCCC[n+]1ccc2ccccc2c1", "0.794 µM (active)"],
  ["Clc1cc(Cl)c(OCC#CI)cc1Cl", "11.2 µM (active)"],
  ["C[C@]12O[C@H](C[C@]1(O)CO)n1c3ccccc3c3c4c(c5c6ccccc6n2c5c31)CNC4=O", "0.398 µM (active)"]
]}
